// values below are reported growth inhibition
# EXPERIMENT_SUMMARY: NCI Yeast Anticancer Drug Screen. Data for the mlh1 rad18 strain (AID 175)
# DETAILS: S. cerevisiae mlh1 rad18 strain growth inhibition; at 50.0 µM; active compounds read high
The panel holds about 79,000 compounds, 15% with a hit somewhere; the sample as a whole holds those more often.
Hi! Could you send only the number? It should be in %, unit omitted.

INPUT: growth inhibition for CCOC(=O)/C(N=Nc1ccc(O)cc1)=C(\C)O ?
OUTPUT: -0.65

INPUT: growth inhibition for O=c1c([OH2+])c(-c2ccc(O)cc2[O-])oc2cc(O)cc([O-])c12.O=c1c([OH2+])c(-c2ccc(O)cc2[O-])oc2cc(O)cc([O-])c12.[Ti+4] ?
OUTPUT: 10.2

INPUT: growth inhibition for CCC/C=N/NS(=O)(=O)c1ccc(C)cc1 ?
OUTPUT: 12.6

INPUT: growth inhibition for COC1/C=C/OC2(C)Oc3c(C)c(O)c4c(O)c(c(/C=N/N5CCN(Cc6cccc(C(F)(F)F)c6)CC5)c(O)c4c3C2=O)NC(=O)C(C)=C/C=C/C(C)C(O)C(C)C(O)C(C)C(OC(C)=O)C1C (stereo not drawn) ?
OUTPUT: 43.1

INPUT: growth inhibition for CS(=O)CCNC(=O)NS(=O)(=O)c1ccc(Cl)cc1 (stereo not drawn) ?
OUTPUT: -3.15

INPUT: growth inhibition for O=C1c2ccccc2C(=O)N1/N=N/N1C(=O)c2ccccc2C1=O ?
OUTPUT: 97

INPUT: growth inhibition for O=C1c2cc(Cl)ccc2-c2ccc(Cl)cc21 ?
OUTPUT: 1.05

INPUT: growth inhibition for Cc1ccc(S(=O)(=O)N2N=C(c3ccccc3)CC2c2ccccc2)cc1 (stereo not drawn) ?
OUTPUT: 91

INPUT: growth inhibition for CCOC(=O)c1oc2c(OC)ccc3c2c1CCC3 ?
OUTPUT: 30.8
